- Assay name: NCI Yeast Anticancer Drug Screen. Data for the mec2-1 strain (AID 157)
- Protocol conditions: S. cerevisiae mec2-1 strain, at 50.0 µM, hits give high values
- Description: Growth inhibition of yeast strains with defined genetic alterations is measured as a screen for potential anti-cancer activity. Selected strains with alterations in DNA damage repair or cell cycle control were exposed to compounds and growth inhibition was measured relative to vehicle treated controls. The strain used in this assay is mec2-1
The panel holds about 79,000 compounds, 15% with a hit somewhere; the sample as a whole holds those more often.
Experimental readout: growth inhibition (%)

Molecule | Experimental readout | Reported value
CCN(CC)CCn1ncc2c(N)ncnc21 | growth inhibition | -9
Oc1cc(Cl)c(Cl)cc1Cl.[Cu+2] | growth inhibition | 98.9
CC(=O)[O-].O=[N+]([O-])c1ccc([O-])c(C=NCCN=Cc2cc([N+](=O)[O-])ccc2[O-])c1.[Mn+3] | growth inhibition | 79.2
CN1CCN(Cc2ccccc2)C(C#N)C1 (configuration not stated) | growth inhibition | -8.75
CCCCCCNC(=O)CCl | growth inhibition | -9.85
OC1CCCC2CCCNC12 (configuration not stated) | growth inhibition | 90
CN(C)CCC(C)(C#N)c1ccccc1 (configuration not stated) | growth inhibition | 5.7
Cc1nc2ccccc2c(=O)n1-c1ccc(N(CCCl)CCCl)cc1 | growth inhibition | -9.25
O=C([O-])CC(=O)[O-].[NH-][C@@H]1CCCC[C@H]1[NH-].[Pt+4] | growth inhibition | -15.5
CCCC(C)COC(=O)Cc1ccccc1 (configuration not stated) | growth inhibition | 18.2
C[C@]12C=CC(=O)NC[C@@H]1CC[C@@H]1[C@@H]2CC[C@]2(C)[C@@H](OC(=O)COc3ccc(N(CCCl)CCCl)cc3)CC[C@@H]12 | growth inhibition | 5.05
COC1C(=[N+]=[N-])C(=O)NC(=O)N1C (configuration not stated) | growth inhibition | -3.4

* * *

Measured growth inhibition of individual entries
- Assay name: NCI Yeast Anticancer Drug Screen. Data for the cln2 rad14 strain (AID 165);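 also: 0% = growth equal to vehicle treated cultures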
- Protocol conditions: S. cerevisiae cln2 rad14 strain, at 50.0 µM, hits give high values
This is part of a sample that, as a whole, favours compounds with a hit. Of some 79,000 tested, about 15% had one in any assay.
Experimental readout: growth inhibition (%)

Molecule | Value units | Reported value
S=C1NCCN1 | % | 38.5
O=c1oc2ccccc2c(O)c1C(C/C(CCN1CCCC1)=N/O)c1ccccc1 (stereo not given) | % | 64.2
COc1ccc(/C=C/C(=O)c2c(-c3ccccc3)nn(C)c(=O)c2N2CC2C)cc1 (stereo not given) | % | -7.2
CC1(C)OC2(C)CCC1C(O)C2N1CCCCC1 (stereo not given) | % | 0.75
CC(C)CC(=O)[O-].CC(C)CC(=O)[O-].N.N.N.N.[Co+3].[O-][Cl+3]([O-])([O-])O.[O-][Cl+3]([O-])([O-])[O-] | % | -20.9
CC1(C)OCC(C2NC2C2COC(C)(C)O2)O1 (stereo not given) | % | -40.4
O=C([CH-]C(=O)C(F)(F)F)c1ccco1.O=C([CH-]C(=O)C(F)(F)F)c1ccco1.O=C([CH-]C(=O)C(F)(F)F)c1ccco1.[Ru+3] | % | -11.6
COc1c(Cl)[c]([Hg][O]C(C)=O)c(NCC(C)=O)c(OC)[c]1[Hg][O]C(C)=O | % | 89.4
CC(=O)Oc1ccc(/C=C/[N+](=O)[O-])cc1 | % | 82
CC(=O)NNc1ccccc1 | % | 40

Value source: PubChem BioAssay (NCI)
